Measured IC50 values are reported for all entries that follow.
Test system: OVCAR-3 cells
ASSAY_SUMMARY: Cell Growth Inhibition, OVCAR-3 (CellTiterGlo, 6 days)
Assay type: cell-based
ASSAY_CONDITIONS: Homo sapiens, 144 h; OVCAR-3, 6-day treatment, CellTiterGlo 2.0
OBSERVED_PROPERTY: IC50

1) O=S(=O)(CC1CCC1)N1CCC(Nc2ncc3cc(C(F)F)cc(N4CC5(CCNC5)C4)c3n2)CC1 0.5 to 2 µM
2) O=S(=O)(C1CC1)N1CCC(Nc2ncc3cc(C(F)F)cc(N4CC5(CCNC5)C4)c3n2)CC1 0.2 to 0.5 µM
3) CN1CC2(CCN(c3cc(C(F)F)cc4cnc(NC5CCN(c6ncc7ccn(C8CC8)c7n6)CC5)nc34)C2)C1 0.5 to 2 µM

----------
MEASUREMENT_TARGET: CDK6/Cyclin D3 (Homo sapiens (Human), UniProt Q00534)
Sequence (Q00534 whole entry): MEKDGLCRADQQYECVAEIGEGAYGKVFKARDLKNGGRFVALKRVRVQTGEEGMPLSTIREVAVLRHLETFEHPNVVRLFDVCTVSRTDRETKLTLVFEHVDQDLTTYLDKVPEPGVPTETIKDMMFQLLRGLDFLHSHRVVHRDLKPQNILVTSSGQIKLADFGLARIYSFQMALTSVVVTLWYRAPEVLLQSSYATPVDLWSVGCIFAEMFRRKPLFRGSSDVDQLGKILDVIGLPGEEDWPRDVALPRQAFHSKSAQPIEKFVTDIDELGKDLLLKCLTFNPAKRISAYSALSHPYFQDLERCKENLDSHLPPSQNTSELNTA
Sequence (P30281 whole entry partner): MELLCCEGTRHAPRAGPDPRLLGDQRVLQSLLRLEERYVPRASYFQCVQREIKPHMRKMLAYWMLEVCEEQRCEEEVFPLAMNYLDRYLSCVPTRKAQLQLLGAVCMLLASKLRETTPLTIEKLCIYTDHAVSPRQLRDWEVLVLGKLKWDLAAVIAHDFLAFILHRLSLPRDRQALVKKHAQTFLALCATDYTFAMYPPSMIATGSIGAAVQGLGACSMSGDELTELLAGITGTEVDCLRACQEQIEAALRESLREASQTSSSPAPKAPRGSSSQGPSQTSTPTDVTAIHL
ASSAY_SUMMARY: CDK6/Cyclin D3 ADP-Glo Kinase Assay
Format: biochemical
ASSAY_CONDITIONS: 100 uM ATP, read-out: CDK6/ CyclinD3 IC50
pIC50: −log10 of the molar value.
OBSERVED_PROPERTY: pIC50

COMPOUND	ASSAY_RESULT
CS(=O)(=O)N1CCC(Nc2ncc3cccc(N4CC5CC(C4)O5)c3n2)CC1 [Example 30]	6.30 to 6.70
CC(=O)N1CCC2(CCN(c3cccc4cnc(Nc5ccc6c(c5)CCN(C)C6)nc34)C2)C1 (stereo not drawn) [Example 38]	6.30 to 6.70
CS(=O)(=O)N1CCC(Nc2ncc3cccc(N4CCN(C5CC5)CC4)c3n2)CC1 [Example 13]	5.70 to 6.30
CS(=O)(=O)N1CCC(Nc2ncc3cccc(C4CC5(CNCCO5)C4)c3n2)CC1 (stereo not drawn) [Example 110]	> 6.70
CN1Cc2ccc(Nc3ncc4cc(C(F)F)cc(N5CCC6(CN(C)C6)C5)c4n3)cc2C1 [Example 66]	> 6.70
CS(=O)(=O)N1CCC(Nc2ncc3cc(C(F)F)cc(C4CC5(CCN(C6COC6)C5)C4)c3n2)CC1 (stereo not drawn) [Example 102]	> 6.70

----------
Measured pIC50 values are reported for all entries that follow.
MEASUREMENT_TARGET: CDK4/Cyclin D1 (Homo sapiens (Human), UniProt P11802)
Sequence (P11802 whole entry): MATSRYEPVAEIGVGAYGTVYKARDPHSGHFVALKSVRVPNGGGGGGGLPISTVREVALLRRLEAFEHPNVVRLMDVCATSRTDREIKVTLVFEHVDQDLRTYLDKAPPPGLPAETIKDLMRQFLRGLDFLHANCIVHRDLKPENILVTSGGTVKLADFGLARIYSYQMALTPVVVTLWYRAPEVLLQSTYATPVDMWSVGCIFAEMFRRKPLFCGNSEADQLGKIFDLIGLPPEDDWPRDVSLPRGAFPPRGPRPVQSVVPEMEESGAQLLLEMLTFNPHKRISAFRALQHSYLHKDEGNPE
Sequence (P24385 whole entry partner): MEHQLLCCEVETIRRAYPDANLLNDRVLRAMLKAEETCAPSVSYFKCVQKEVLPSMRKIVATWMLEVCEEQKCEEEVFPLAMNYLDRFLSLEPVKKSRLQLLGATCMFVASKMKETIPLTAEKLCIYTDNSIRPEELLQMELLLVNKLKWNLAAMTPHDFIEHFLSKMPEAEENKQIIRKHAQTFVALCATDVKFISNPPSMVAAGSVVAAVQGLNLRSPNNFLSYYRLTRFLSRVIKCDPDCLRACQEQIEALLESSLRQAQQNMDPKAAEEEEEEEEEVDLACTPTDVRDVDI
ASSAY_SUMMARY: CDK4/Cyclin D1 Mobility Shift Assay (MSA)
Format: biochemical
ASSAY_CONDITIONS: 0.2 mM ATP, read-out: CDK4/ CyclinD1 MSA IC50
pIC50: −log10 of the molar value.
OBSERVED_PROPERTY: pIC50

COMPOUND	MEASUREMENT_TARGET	OBSERVED_PROPERTY	ASSAY_RESULT
CC(=O)N1CCC2(CCN(c3cc(C(F)F)cc4cnc(Nc5cnn(C(C)C)c5)nc34)C2)C1 (stereo not drawn)	CDK4/Cyclin D1 (Homo sapiens (Human), UniProt P11802)	pIC50	> 6.70
CS(=O)(=O)N1CCC(Nc2ncc3cccc(N4CCC5(CCN(S(C)(=O)=O)C5)C4)c3n2)CC1 (stereo not drawn)	CDK4/Cyclin D1 (Homo sapiens (Human), UniProt P11802)	pIC50	> 6.70
CS(=O)(=O)N1CCC(Nc2ncc3cccc(N4CCC5(COC5)C4)c3n2)CC1	CDK4/Cyclin D1 (Homo sapiens (Human), UniProt P11802)	pIC50	> 6.70
CS(=O)(=O)N1CCC(Nc2ncc3cccc(N4CC5CC(C4)O5)c3n2)CC1	CDK4/Cyclin D1 (Homo sapiens (Human), UniProt P11802)	pIC50	> 6.70
CC(=O)N1CCC2(CCN(c3cc(C(F)F)cc4cnc(NC5CCN(S(C)(=O)=O)CC5)nc34)C2)C1 (stereo not drawn)	CDK4/Cyclin D1 (Homo sapiens (Human), UniProt P11802)	pIC50	> 6.70
CC(=O)N1CC2(CCN(c3cccc4cnc(NC5CCN(S(C)(=O)=O)CC5)nc34)C2)C1	CDK4/Cyclin D1 (Homo sapiens (Human), UniProt P11802)	pIC50	5.70 to 6.30
CS(=O)(=O)N1CCC(Nc2ncc3cccc(C4CCCC4)c3n2)CC1	CDK4/Cyclin D1 (Homo sapiens (Human), UniProt P11802)	pIC50	> 6.70
CC(=O)N1CCC2(CC1)CCN(c1cccc3cnc(NC4CCN(S(C)(=O)=O)CC4)nc13)C2	CDK4/Cyclin D1 (Homo sapiens (Human), UniProt P11802)	pIC50	> 6.70
COCCN1CC2(C1)CN(c1cccc3cnc(NC4CCN(S(C)(=O)=O)CC4)nc13)C2	CDK4/Cyclin D1 (Homo sapiens (Human), UniProt P11802)	pIC50	> 6.70
CN1CC2(CCN(c3cccc4cnc(Nc5ccc(N6CC7(COC7)C6)cn5)nc34)C2)C1	CDK4/Cyclin D1 (Homo sapiens (Human), UniProt P11802)	pIC50	> 6.70
CS(=O)(=O)N1CCC(Nc2ncc3cccc(N4CCC4CO)c3n2)CC1 (stereo not drawn)	CDK4/Cyclin D1 (Homo sapiens (Human), UniProt P11802)	pIC50	> 6.70
CS(=O)(=O)N1CCC(Nc2ncc3cccc(N4CC5(CCOCC5)C4C4CC4)c3n2)CC1 (stereo not drawn)	CDK4/Cyclin D1 (Homo sapiens (Human), UniProt P11802)	pIC50	5.70 to 6.30
CS(=O)(=O)N1CCC(Nc2ncc3cccc(N4CCC5(CCOCC5)C4)c3n2)CC1	CDK4/Cyclin D1 (Homo sapiens (Human), UniProt P11802)	pIC50	> 6.70
CCN1CC2(C1)CN(c1ccc(Nc3ncc4cccc(N5CC6(C5)CC(F)(F)C6)c4n3)nc1)C2	CDK4/Cyclin D1 (Homo sapiens (Human), UniProt P11802)	pIC50	> 6.70
CS(=O)(=O)N1CCC(Nc2ncc3cccc(N4CC5(CCNC5)C4)c3n2)CC1	CDK4/Cyclin D1 (Homo sapiens (Human), UniProt P11802)	pIC50	> 6.70
CN1CC2(CCC1=O)CCN(c1cccc3cnc(NC4CCN(S(C)(=O)=O)CC4)nc13)C2 (stereo not drawn)	CDK4/Cyclin D1 (Homo sapiens (Human), UniProt P11802)	pIC50	6.30 to 6.70
CS(=O)(=O)N1CCC(Nc2ncc3cccc(N4CCOC5(CC5)C4)c3n2)CC1	CDK4/Cyclin D1 (Homo sapiens (Human), UniProt P11802)	pIC50	5.70 to 6.30
CS(=O)(=O)N1CCC(Nc2ncc3cccc(N4CCN(S(C)(=O)=O)CC4)c3n2)CC1	CDK4/Cyclin D1 (Homo sapiens (Human), UniProt P11802)	pIC50	6.30 to 6.70
CCN1CC2(C1)CN(c1ccc(Nc3ncc4cccc(N5CC6(CC(O)C6)C5)c4n3)nc1)C2	CDK4/Cyclin D1 (Homo sapiens (Human), UniProt P11802)	pIC50	> 6.70
CN1C[C@@H]2[C@H](C1)[C@H]2Nc1ncc2cc(C(F)F)cc(N3CCC4(C3)CS(=O)(=O)C4)c2n1	CDK4/Cyclin D1 (Homo sapiens (Human), UniProt P11802)	pIC50	> 6.70
COCCN1CCC2(C1)CN(c1cccc3cnc(NC4CCN(S(C)(=O)=O)CC4)nc13)C2	CDK4/Cyclin D1 (Homo sapiens (Human), UniProt P11802)	pIC50	> 6.70
CN1CCN(C2CCN(c3cccc4cnc(NC5CCN(S(C)(=O)=O)CC5)nc34)C2)CC1 (stereo not drawn)	CDK4/Cyclin D1 (Homo sapiens (Human), UniProt P11802)	pIC50	5.70 to 6.30
CS(=O)(=O)N1CCC(Nc2ncc3cccc(N4CCCC5(CCOC5)C4)c3n2)CC1 (stereo not drawn)	CDK4/Cyclin D1 (Homo sapiens (Human), UniProt P11802)	pIC50	6.30 to 6.70
CS(=O)(=O)N1CCC(Nc2ncc3cccc(N4CCN(CC5CC5)CC4)c3n2)CC1	CDK4/Cyclin D1 (Homo sapiens (Human), UniProt P11802)	pIC50	6.30 to 6.70

----------
MEASUREMENT_TARGET: CDK6/Cyclin D3 (Homo sapiens (Human), UniProt Q00534)
ASSAY_SUMMARY: CDK6/Cyclin D3 ADP-Glo Kinase Assay
ASSAY_CONDITIONS: 100 uM ATP, read-out: CDK6/ CyclinD3 IC50
pIC50: −log10 of the molar value.

COMPOUND	pIC50
CS(=O)(=O)N1CCC(Nc2ncc3cc(C(F)F)cc(N4CC5(C4)CN(C4CC4)C5)c3n2)CC1	> 6.70
CC1(CS(=O)(=O)N2CCC(Nc3ncc4cc(C(F)F)cc(N5CC6(CCNC6)C5)c4n3)CC2)CC1	> 6.70
CS(=O)(=O)N1CCC(Nc2ncc3cccc(N4CCC5(CCN(S(C)(=O)=O)C5)C4)c3n2)CC1 (stereo not drawn)	> 6.70
CS(=O)(=O)N1CCC(Nc2ncc3cccc(N4CCC5(CCC5(F)F)C4)c3n2)CC1 (stereo not drawn)	> 6.70
O=S(=O)(CC1CCC1)N1CCC(Nc2ncc3cc(C(F)F)cc(N4CCC5(CNC5)C4)c3n2)CC1	> 6.70
CS(=O)(=O)N1CCC(Nc2ncc3cc(C(F)F)cc(C4CC5(CCN(CCC(F)(F)F)C5)C4)c3n2)CC1 (stereo not drawn)	> 6.70
CN1C[C@@H]2[C@H](C1)[C@H]2Nc1ncc2cc(C(F)F)cc(N3CCC4(C3)CS(=O)(=O)C4)c2n1	6.30 to 6.70
COC1CC2(C1)CC(c1cc(C(F)F)cc3cnc(NC4CCN(S(C)(=O)=O)CC4)nc13)C2 (stereo not drawn)	> 6.70
CN1CC2(CCC1=O)CCN(c1cccc3cnc(NC4CCN(S(C)(=O)=O)CC4)nc13)C2 (stereo not drawn)	5.70 to 6.30
FC(F)c1cc(N2CCC3(C2)CC3(F)F)c2nc(NC3[C@H]4CNC[C@@H]34)ncc2c1 (stereo partly drawn)	> 6.70
CS(=O)(=O)N1CCC(Nc2ncc3cccc(N4CC5(CNCC5(F)F)C4)c3n2)CC1	> 6.70
COCCN1CC2(CC(c3cc(C(F)F)cc4cnc(NC5CCN(S(C)(=O)=O)CC5)nc34)C2)C1	> 6.70
FC(F)c1cc(N2CC3(CCNC3)C2)c2nc(NC3CCN(c4ncc(C5CC5)cn4)CC3)ncc2c1	6.30 to 6.70
CC(=O)N1CCC2(CCN(c3cc(C(F)F)cc4cnc(Nc5ccc(N6CCN(C)CC6)cc5)nc34)C2)C1 (stereo not drawn)	> 6.70
CN1Cc2ccc(Nc3ncc4cc(C(F)F)cc(N5CC6(C5)CN(S(C)(=O)=O)C6)c4n3)cc2C1	> 6.70
CS(=O)(=O)N1CCC(Nc2ncc3cccc(N4CCC5(CNC5)C4)c3n2)CC1	6.30 to 6.70
CS(=O)(=O)N1CCC(Nc2ncc3cccc(N4CCN(C5COC5)CC4)c3n2)CC1	< 5.70
CN1CCC2(C1)CN(c1cc(C(F)F)cc3cnc(NC4CCN(S(=O)(=O)C5CC5)CC4)nc13)C2	> 6.70
CS(=O)(=O)N1CCC(Nc2ncc3cc(C(F)F)cc(C4CC5(C4)CN(CC(F)(F)CO)C5)c3n2)CC1	> 6.70
CS(=O)(=O)N1CC[C@@H](Nc2ncc3cc(C(F)F)cc(N4CC(F)(F)C5(CNC5)C4)c3n2)[C@H](O)C1 (racemic)	> 6.70
O=S(=O)(N1CCC(Nc2ncc3cc(C(F)F)cc(C4CC5(CCNC5)C4)c3n2)CC1)C1(C(F)F)CC1 (stereo not drawn)	> 6.70
COC1CC2(C1)CC(c1cccc3cnc(NC4CCN(S(C)(=O)=O)CC4)nc13)C2 (stereo not drawn)	> 6.70
COCCN1CC2(C1)CN(c1cccc3cnc(NC4CCN(S(C)(=O)=O)CC4)nc13)C2	5.70 to 6.30
CC(=O)N1CCC2(CCN(c3c(F)ccc4cnc(NC5CCN(S(C)(=O)=O)CC5)nc34)C2)C1 (stereo not drawn)	> 6.70
